Condition context: Ebola virus entry assay, reporter ratio channel; Channel type: primary
Activity calls are given as the source filed them. How the calls were made is not given here.
Outcome codes: YES for active, NO for inactive

compound="CC(C)NCC(O)c1ccc2ccccc2c1 (stereo not given)" class_assignment=YES
compound=NC(N)=N/N=C/c1c(Cl)cccc1Cl class_assignment=YES
compound=C[C@@H]1C[C@H]2[C@@H]3CCC4=CC(=O)C=C[C@]4(C)[C@@]3(Cl)[C@@H](O)C[C@]2(C)[C@@]1(OC(=O)c1ccco1)C(=O)CCl class_assignment=YES
compound=C[C@H](CCC(=O)O)[C@H]1CC[C@H]2[C@@H]3C(=O)C[C@@H]4CC(=O)CC[C@]4(C)[C@H]3CC(=O)[C@]12C class_assignment=NO
compound=CC(C)[C@@H]1CC[C@@H](C)CC1=O class_assignment=NO
compound=OC(c1ccccc1)(c1ccccc1)C1CCNCC1 class_assignment=YES
compound=CN(C)CCN(Cc1ccccc1)c1ccccn1 class_assignment=YES
compound=NS(=O)(=O)c1cc2c(cc1Cl)NCNS2(=O)=O class_assignment=NO
compound=COc1ccc(OC(=O)N(CC(=O)O)Cc2ccc(OCCc3nc(-c4ccccc4)oc3C)cc2)cc1 class_assignment=NO
compound="C=C(C)C(=O)OCC(O)CO (stereo not given)" class_assignment=NO
